test system: NCI-H23; assay: Antiproliferative activity against human lung NCI-H23 cell line; type: functional
MEASUREMENT_LABEL: GI50 (nM)

>  <SAMPLE_SMILES>
COc1cccc(OC(=O)c2ccccc2Nc2ccnc(C(F)(F)F)c2)c1

>  <GI50 / nM>
2040

$$$$
>  <SAMPLE_SMILES>
O=C(Oc1ccccc1Cl)c1ccccc1Nc1ccnc(C(F)(F)F)c1

>  <GI50 / nM>
257

$$$$
>  <SAMPLE_SMILES>
O=C(Oc1cccnc1)c1cccnc1Nc1ccnc(C(F)(F)F)c1

>  <GI50 / nM>
6310

$$$$
>  <SAMPLE_SMILES>
O=C(Oc1ccc(Cl)cc1)c1ccccc1Nc1ccnc(C(F)(F)F)c1

>  <GI50 / nM>
2820

$$$$

A: O=C(Oc1cccnc1)c1ccccc1Nc1ccnc(C(F)(F)F)c1
B: O=C(Oc1c(Cl)cc(Cl)cc1Cl)c1ccccc1Nc1ccnc(C(F)(F)F)c1
C: O=C(Oc1ccccc1Cl)c1ccccc1Nc1cccc(C(F)(F)F)c1
D: O=C(Oc1ccccc1Cl)c1cccnc1Nc1ccnc(C(F)(F)F)c1
## Task In this exercise, place the 4 molecules in ascending sequence of their recorded GI50. Output spec: labels arranged per the requested ranking.
## Result A, B, D, C
(A: 36.3 nM, B: 2570 nM, D: 8710 nM, C: 20000 nM)

P: O=C(Oc1ccc(Cl)cc1Cl)c1ccccc1Nc1ccnc(C(F)(F)F)c1
Q: O=C(Oc1cccc(Cl)c1)c1ccccc1Nc1ccnc(C(F)(F)F)c1
## Task Would you let me know which has the greater GI50 value, P or Q ? Could you answer with the label of the item you picked?
## Result P
(P: 3550 nM, Q: 2400 nM)

----------
system: UACC-62; experiment: Antiproliferative activity against human melanoma UACC62 cell line; assay type: functional
The reader will find reported GI50 values listed item by item below.
Respond numerically; units are µM and should not be typed.

Would you please look over these solved cases?
>  <SAMPLE_SMILES>
O=C(Oc1ccc(Cl)cc1)c1ccccc1Nc1ccnc(C(F)(F)F)c1

>  <DISPLAY_UNIT>
µM

>  <GI50>
2.63

$$$$
>  <SAMPLE_SMILES>
O=C(Oc1ccccc1Cl)c1ccccc1Nc1cccc(C(F)(F)F)c1

>  <DISPLAY_UNIT>
µM

>  <GI50>
17

$$$$
>  <SAMPLE_SMILES>
O=C(Oc1ccccc1Cl)c1cccnc1Nc1ccnc(C(F)(F)F)c1

>  <DISPLAY_UNIT>
µM

>  <GI50>
6.17

$$$$
>  <SAMPLE_SMILES>
O=C(Oc1cccc(Cl)c1)c1ccccc1Nc1ccnc(C(F)(F)F)c1

>  <DISPLAY_UNIT>
µM

>  <GI50>
2.04

$$$$
>  <SAMPLE_SMILES>
COc1cccc(OC(=O)c2ccccc2Nc2ccnc(C(F)(F)F)c2)c1

>  <DISPLAY_UNIT>
µM

>  <GI50>
3.09

$$$$
>  <SAMPLE_SMILES>
O=C(Oc1c(Cl)cc(Cl)cc1Cl)c1ccccc1Nc1ccnc(C(F)(F)F)c1

>  <DISPLAY_UNIT>
µM

>  <GI50>
1.74

$$$$
>  <SAMPLE_SMILES>
O=C(Oc1cccnc1)c1cccnc1Nc1ccnc(C(F)(F)F)c1

>  <DISPLAY_UNIT>
µM

>  <GI50>
5.75

$$$$

Now turn to the next compound.
Item O=C(Oc1ccccc1Cl)c1ccccc1Nc1ccnc(C(F)(F)F)c1 ; assay system UACC-62; GI50 reported as 0.309

// data source = ChEMBL document CHEMBL1141187
